Please respond with reported growth inhibition for every item in the list.
experiment_notes: NCI Yeast Anticancer Drug Screen. Data for the mlh1 rad18 strain (AID 175)
test_conditions: S. cerevisiae mlh1 rad18 strain growth inhibition; at 50.0 µM (retest, dose inferred, filed as 5.0); active compounds read high
The panel holds about 79,000 compounds, 15% with a hit somewhere; the sample as a whole holds those more often.
Numbers only, in %.

CCS(=O)(=O)c1ccc(NC(=O)OC2CCCCCCC2)cc1 :: 90
Cc1ccc(S(=O)(=O)OC2C(C)OCOC(C)C2OS(=O)(=O)c2ccc(C)cc2)cc1 (stereo unspecified) :: 1
C1=C([P+](c2ccccc2)(c2ccccc2)c2ccccc2)CCCC1 :: 91
COc1cccc(C2c3cc4c(cc3OC(NNc3ccccc3)C2C)OCO4)c1OC (stereo unspecified) :: 93
Cc1ccc(N=C(N)Nc2ccc(C)cn2)nc1 :: 72

Parameter requested: growth inhibition. Apply to each item below.
1. O=C1c2ccccc2-c2cc(S)c([N+](=O)[O-])cc21
2. CC(C)C1=CC2=CCC3C(C)(C(=O)O)CCCC3(C)C2CC1 (stereo unspecified) (tested in a mixture with another compound)
3. CCCCCc1cccc(CC(=O)OCC)n1
4. Oc1c(C(O)(c2ccccc2)c2ccc3ccccc3c2O)ccc2ccccc12
5. CN(C)Cc1ccc2c(c1)c1c(n2Cc2ccccc2)CCCC1
6. O=[N+]([O-])C(=C1Nc2ccccc2N1)C(Cl)=C(Cl)Cl

Result:
4
92
-132
85
97
16

====

experiment_notes: NCI Yeast Anticancer Drug Screen. Data for the bub3 strain (AID 167)
test_conditions: S. cerevisiae bub3 mutant strain, at 5.0 µM (retest, dose inferred, filed as 0.5), active compounds read high
About 79,000 compounds went through this panel and 15% of them were active in at least one assay; those are over-represented in the sample as a whole.
Please respond with reported growth inhibition for every item in the list.
One number for each entry, in %.

Past entries and their recorded results:
CC1OC(OC2C(Oc3c(-c4ccc(O)c(O)c4O)oc4cc(O)ccc4c3=O)OC(CO)C(O)C2O)C(O)C(O)C1O (stereo not given) :: -1
Cc1cc(NC(=S)SC(C)C)ccc1Br :: 7
Clc1ccc(CN2COc3c(cc(Cl)c4cccnc34)C2)cc1Cl :: 3

Parameter requested: growth inhibition. Apply to each item below.
1. COC(=O)Cn1/c(=N\N=C(/C)c2ccc(C)cc2)sc2ccccc21
2. COc1cc(NCCCCCNC(C)C)c2ncc(C)c(C)c2c1
3. C=C1C(=O)O[C@@H]2CC(CO)=C([C@@H](C)CCCO)[C@@H](OC(=O)/C(C)=C\C)[C@H]12
4. O=[N+]([O-])c1ccc(SC(=S)N2CCCCC2)c([N+](=O)[O-])c1
5. O=CC(I)=C(c1ccccc1)c1ccccc1
6. CCCCCN(CCCCC)CC(=O)OCC1(C)CCCC2(C)C3CCC(C(C)C)=CC3=CCC12 (stereo not given)
7. CN1CCCCC1c1cc2c3ccccc3ccn2c1-c1ccccc1 (stereo not given)
8. Cc1ccc(C2=C(C#N)C(c3ccccc3)C(C#N)=C(N)O2)cc1 (stereo not given)

Result:
1. -11
2. 3
3. 9
4. 10
5. -2
6. 1
7. 9
8. 48

Parameter requested: growth inhibition. Apply to each item below.
1. Cc1ccc(NC(=S)SCc2ccc3c(c2)OCO3)cc1Br
2. OC1c2cc(Cl)cc(Cl)c2OC2(N3CCCC3)CCCCC12 (stereo not given)
3. Cc1cc(O)c(C)c(C)c1N=Nc1ccccc1

Result:
58
51
-70

Parameter requested: growth inhibition. Apply to each item below.
1. Cc1[nH]c(=O)[nH]c(=S)c1C(=O)NC1C2CCCCC2NC2CCCCC21 (stereo not given)
2. COC(=O)[C@]1(C)CCCC2(C)C3=C(CCC21)CC1(CC3)SCCS1 (stereo not given in full)
3. O=C(NCCCl)Nc1c2ccccc2nc2ccccc12
4. CC(=O)O[C@H]1[C@@H]2CC(C)(C)CC2=C(C=O)C2(C=O)CC12C (stereo not given in full)
5. C/C(=N\NC(=O)c1ccc([N+](=O)[O-])cc1)c1ccccc1
6. O=[n+]1c2c(n([O-])c3ccc4ccccc4c31)-c1cccc3cccc-2c13
7. [Fe+2].c1cc[cH-]c1.c1ccc(-c2ccc[cH-]2)cc1

Result:
48
56
-1
54
9
-1
0

====

experiment_notes: NCI Yeast Anticancer Drug Screen. Data for the cln2 rad14 strain (AID 165);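 further: 0% = growth equal to vehicle treated cultures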
test_conditions: S. cerevisiae cln2 rad14 strain, at 5.0 µM (retest, dose inferred, filed as 0.5), active compounds read high
This is part of a sample that, as a whole, favours compounds with a hit. Of some 79,000 tested, about 15% had one in any assay.
readout_name: growth inhibition (%)
Give bare numbers, in %.

Past entries and their recorded results:
Cn1c(C2CCC(=O)N2Cc2ccccc2)n[nH]c1=S (stereo not drawn) :: 2
c1ccc2c(c1)cc(C1NCCc3[nH]cnc31)c1ccccc12 (stereo not drawn) :: 26
CN(C)C1C=CCC(c2ccccc2)C1[N+](=O)[O-] (stereo not drawn) :: 5

Parameter requested: growth inhibition. Apply to each item below.
1. CNc1ccc([N+](=O)[O-])cc1
2. CC(=O)Nc1ccc(C(C)(C)c2ccc(C)cc2)cc1
3. Cc1n(CC(C)C)c2c([n+]1CC(=O)c1ccc([N+](=O)[O-])cc1)C(=O)c1ccccc1C2=O
4. O=[N+]([O-])c1ncn(C2OC(CO)C(O)C2O)c1S (stereo not drawn)
5. O=c1nc(N2CCCC2)nc(N2CCCC2)s1
6. C/C(=N/NC(N)=S)C(CN1CCOCC1)C(C1=C(O)c2ccccc2OC1)c1ccccc1 (stereo not drawn)

Result:
2
2
66
-3
14
6

Parameter requested: growth inhibition. Apply to each item below.
1. CCCCC#CCCOC(=O)C#CCCCC
2. O=[N+]([O-])c1ccccc1CC(c1c[nH]c2ccccc12)c1c[nH]c2ccccc12
3. C1=CC2C(c3cccc4ccccc34)O[C@H]2O1 (stereo partly drawn)
4. CCCCCCCCCCCCCCCC(=O)NCC[N+](C)(CC)CC
5. O=C1C(=O)N(c2ccc(Cl)c(Cl)c2)C(=O)C(=O)C1c1nc2ccccc2o1
6. COc1ccc(-c2c(CO)cc(OC)c(OC)c2OC)c(CO)c1
7. O=C(Nc1ncnc2c1ncn2C1CC(O)C(CO)O1)c1ccccc1 (stereo not drawn)

Result:
[8, 1, 7, 1, 22, -2, -6]

Parameter requested: growth inhibition. Apply to each item below.
1. Brc1ccc(CCNCCN2CCCCC2)cc1
2. Cc1ccc(Cl)cc1NC(=O)N(C)CCOC(=O)Nc1cccc(Cl)c1
3. C/C=C/C/S(=N\S(=O)(=O)c1ccc(C)cc1)c1ccccc1 (stereo not drawn)
4. N#Cc1ccc(C2Oc3ccc(Cl)cc3C=C2[N+](=O)[O-])cc1 (stereo not drawn)
5. CCN1C2=NC(=O)N(C)C(=O)C2(Cl)C(C(SC)S(=O)(=O)c2ccc(C)cc2)c2ccccc21 (stereo not drawn)
6. Cc1[nH]ccc2c(C)c3nc4ccccc4c3cc12
7. c1cc2c(cc1CCCCCCCCCCc1ccc3c(c1)CCC3)CCC2

Result:
1: 45; 2: 22; 3: 1; 4: 98; 5: 18; 6: 4; 7: -4

====

Please respond with reported growth inhibition for every item in the list.
experiment_notes: NCI Yeast Anticancer Drug Screen. Data for the mlh1 rad18 strain (AID 175)
test_conditions: S. cerevisiae mlh1 rad18 strain growth inhibition; at 50.0 µM; active compounds read high
The panel holds about 79,000 compounds, 15% with a hit somewhere; the sample as a whole holds those more often.
Numbers only, in %.

Parameter requested: growth inhibition. Apply to each item below.
1. CCc1cccc(CC)c1NC(=O)C1=C(C)NC(C)=C(C(=O)Nc2c(CC)cccc2CC)C1c1ccc2c(c1)OCO2
2. CC(C)(C)C(=O)Nc1ccc2c(c1)C(=O)c1ccccc1C2=O
3. COC(=O)c1n[nH]c(C(C)C)c1N=NN(C)C
4. CCCCN(C(=O)c1ccccc1)C1CCC(=O)c2[nH]c3ccccc3c21 (stereo not given)

Result:
1. 87.5
2. 86.5
3. 99.2
4. 69.5

Problem: So what does the record say about growth inhibition for CC1C(O)Oc2cc3c(cc2C1c1ccccc1O)OCO3 (stereo not given) ?
Result: 54.5

====

experiment_notes: NCI Yeast Anticancer Drug Screen. Data for the sgs1 mgt1 strain (AID 161);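 further: 0% = growth of cultures given vehicle only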
test_conditions: S. cerevisiae sgs1 mgt1 strain, at 50.0 µM (retest, dose inferred, filed as 5.0), active compounds read high
This is part of a sample that, as a whole, favours compounds with a hit. Of some 79,000 tested, about 15% had one in any assay.
Classification field: enter Satisfied for growth inhibition values not below 70%, Not satisfied for values below it.

N#C/C(=C/c1ccccc1B(O)O)C(=O)O :: Not satisfied
CC(C)(C)C(=O)Nc1ccc2c(c1)C(=O)c1ccccc1C2=O :: Satisfied
CCC(C)COC(=O)c1ccc([N+](=O)[O-])cc1 (stereo unspecified) :: Not satisfied

Problem: Check this compound for growth inhibition at or above 70%: "C=CC(=O)N1C/C(=C\c2ccccc2)C(=O)/C(=C/c2ccccc2)C1"
Result: Satisfied

Problem: Also "C[N+](C)(CCO)Cc1ccccc1" ?
Result: Not satisfied

Problem: Also "CCC1(C)C(C#N)(C#N)C1(C#N)C#N" ?
Result: Not satisfied

Problem: Also "CCCCCCCCCCCCCCCCCC(=O)OCCOCCO" ?
Result: Not satisfied

Problem: Also "C(=P(c1ccccc1)(c1ccccc1)c1ccccc1)[P+](c1ccccc1)(c1ccccc1)c1ccccc1.[Br][Cu][Br]" ?
Result: Satisfied

Problem: Also "CC(C)N(CC(=O)c1ccc2cc(Cl)c3ccccc3c2c1)C(C)C" ?
Result: Satisfied

Problem: Also "NCCCNCc1c2ccccc2c(CNCCCN)c2ccccc12" ?
Result: Not satisfied
